# Measurement Target: PBMC LMP7 (Homo sapiens)
# Assay Details: Inhibition of proteasome activity in cells (Proteasome-Glo), PBMC/LMP7
# Type: cell-based
# Run Parameters: 2 h incubation at 37° C.
Assay Readout: IC50 (nM)

| Query Smiles | Measure Unit | IC50 |
| --- | --- | --- |
| CCN(C(=O)C(C#N)=Cc1cccc(CCOC(=O)N[C@@H](Cc2ccccc2)B(O)O)c1)C1CCOCC1 | nM | 2 |
| CNC(=O)C(C#N)=Cc1cccc(OCCC(=O)N[C@@H](Cc2ccccc2)B(O)O)c1 | nM | 34 |
| CC(C)(C)NC(=O)C(C#N)=Cc1cccc(OCCC(=O)N[C@@H](Cc2coc3ccccc23)B(O)O)c1 | nM | 2 |
| CCN(CC)C(=O)C(C#N)=Cc1cccc(CCOC(=O)N[C@@H](Cc2coc3ccccc23)B(O)O)c1 | nM | 12 |
| N#CC(=Cc1cccc(CCOC(=O)N[C@@H](Cc2ccccc2)B(O)O)c1)c1ncccn1 | nM | 2 |

a = CN(C)C(=O)C(C#N)=Cc1cccc(CCOC(=O)N[C@@H](Cc2ccccc2)B(O)O)c1
b = Cc1ccc(C[C@H](NC(=O)OCCc2cccc(C=C(C#N)C(=O)N(C)C)c2)B(O)O)cc1
Q. Select one. Lower IC50: a or b Your answer should be the label of the entry you select.
A. b
(b: 4 nM, a: 9 nM)

I = CCN(CC)C(=O)C(C#N)=Cc1cccc(CCOC(=O)N[C@@H](Cc2ccc(C)cc2)B(O)O)c1
II = N#CC(=Cc1cccc(OCCC(=O)N[C@@H](CCc2ccccc2)B(O)O)c1)c1ccccn1
III = CCN(CC)C(=O)C(C#N)=Cc1cccc(CCOC(=O)N[C@@H](Cc2ccccc2)B(O)O)c1
IV = N#CC(=Cc1cccc(CCOC(=O)N[C@@H](Cc2ccccc2)B(O)O)c1)C(=O)N1C2CCC1COC2
V = CN1CCN(C(=O)C(C#N)=Cc2cccc(OCCC(=O)N[C@@H](Cc3ccccc3)B(O)O)c2)CC1
Q. Place the items in sequence of falling IC50. Labels, requested order.
A. V, III, II, I, IV

----------
# Measurement Target: immunoproteasome LMP2 subunit (Homo sapiens)
# Assay Details: Caliper-based proteasome enzymatic activity assay, LMP2
# Run Parameters: human recombinant immunoproteasome 0.3 nM, FAM peptide substrate 1 μM, rt 2 h
pIC50: −log10 of the molar value.
Assay Readout: pIC50

The following molecules have reported results that may help.
| Query Smiles | Test Result |
| --- | --- |
| CCN(C(=O)C(C#N)=Cc1cccc(CCOC(=O)N[C@@H](Cc2ccccc2)B(O)O)c1)C1CCOCC1 | 5.37 |
| CCN(CC)C(=O)C(C#N)=Cc1cccc(OCCC(=O)N[C@@H](Cc2ccccc2)B(O)O)c1 | 6.30 |
| CN(C)C(=O)C(C#N)=Cc1cccc(OCCC(=O)N[C@@H](Cc2ccccc2)B(O)O)c1 | 6.85 |
| N#CC(=Cc1cc(OCCC(=O)N[C@@H](Cc2ccccc2)B(O)O)ccc1F)c1ccccn1 | 6.91 |
| N#CC(=Cc1cccc(OCCC(=O)N[C@@H](Cc2ccccc2)B(O)O)c1)c1ccc(C(F)(F)F)cn1 | 7.00 |
| CN(C)C(=O)C(C#N)=Cc1ccc(F)c(OCCC(=O)N[C@@H](Cc2ccccc2)B(O)O)c1 | 6.80 |

A = N#CC(=Cc1cccc(CCNC(=O)N[C@@H](Cc2ccccc2)B(O)O)c1)c1ccc(C(F)(F)F)cn1
B = Cc1ccc(C[C@H](NC(=O)CCOc2cccc(C=C(C#N)C(=O)N(C)C)c2)B(O)O)c(C)c1
Q. Of A and B , which carries the smaller reported pIC50 figure? # respond with the chosen item's label
A. B

----------
# Measurement Target: immunoproteasome LMP7/B5i subunit (Homo sapiens)
# Assay Details: Caliper-based proteasome enzymatic activity assay, LMP7
# Run Parameters: human recombinant immunoproteasome 0.3 nM, FAM peptide substrate 1 μM, rt 3 h
Assay Readout: IC50 (nM)

| Query Smiles | Measurement Target | IC50 / nM |
| --- | --- | --- |
| CCN(CC)C(=O)C(C#N)=Cc1cccc(CCNC(=O)N[C@@H](Cc2coc3ccccc23)B(O)O)c1 | immunoproteasome LMP7/B5i subunit (Homo sapiens) | 2.1 |
| N#CC(=Cc1cccc(CCOC(=O)N[C@@H](Cc2ccccc2)B(O)O)c1)c1ncccc1F | immunoproteasome LMP7/B5i subunit (Homo sapiens) | 3.3 |
| N#CC(=Cc1cccc(CCOC(=O)N[C@@H](Cc2ccccc2)B(O)O)c1)c1ccccn1 | immunoproteasome LMP7/B5i subunit (Homo sapiens) | 8 |

P = CC(C)(C)NC(=O)C(C#N)=Cc1cccc(CC[C@H](NC(=O)c2cnccn2)C(=O)N[C@@H](Cc2ccccc2)B(O)O)c1
Q = CC(C)(C)NC(=O)C(C#N)=Cc1ccc(F)c(OCCC(=O)N[C@@H](Cc2ccccc2)B(O)O)c1
R = N#CC(=Cc1cccc(OCCC(=O)N[C@@H](Cc2ccccc2)B(O)O)c1)C(=O)N1CCC1
S = CCN(CC)C(=O)C(C#N)=Cc1cccc(CCOC(=O)N[C@@H](Cc2ccccc2)B(O)O)c1
Q. Arrange items by their IC50 values in increasing order. Reply format: the labels, ordered as requested.
A. R, P, S, Q

----------
# Measurement Target: immunoproteasome LMP2 subunit (Homo sapiens)
# Assay Details: Caliper-based proteasome enzymatic activity assay, LMP2
# Run Parameters: human recombinant immunoproteasome 0.3 nM, FAM peptide substrate 1 μM, rt 2 h
Assay Readout: IC50 (µM)

Example results:
| Compound | Measurement Target | IC50 / µM |
| --- | --- | --- |
| CCNC(=O)C(C#N)=Cc1cccc(OCCC(=O)N[C@@H](Cc2ccccc2)B(O)O)c1 | immunoproteasome LMP2 subunit (Homo sapiens) | 0.27 |
| N#CC(=Cc1cccc(CCOC(=O)N[C@@H](Cc2ccccc2)B(O)O)c1)c1cnccn1 | immunoproteasome LMP2 subunit (Homo sapiens) | 1.51 |
| COC(C)(C)CNC(=O)C(C#N)=Cc1cccc(OCCC(=O)N[C@@H](Cc2ccccc2)B(O)O)c1 | immunoproteasome LMP2 subunit (Homo sapiens) | 0.415 |

I = N#CC(=Cc1cccc(OCCC(=O)N[C@@H](Cc2ccccc2)B(O)O)c1F)c1ccccn1
II = Cn1cnc(C(C#N)=Cc2cccc(CCOC(=O)N[C@@H](Cc3ccccc3)B(O)O)c2)cc1=O
Q. Identify the entry with the smaller IC50: I or II . Give the label of your selection.
A. I
(I: 0.0739 µM, II: 2.02 µM)

----------
# Measurement Target: constitutive proteasome β5c subunit (Homo sapiens, UniProt P28074)
# Assay Details: Caliper-based proteasome enzymatic activity assay, β5c
# Run Parameters: human recombinant constitutive proteasome 0.3 nM, FAM peptide substrate 1 μM, rt 3 h
Assay Readout: IC50 (nM)

As a guide, the following entries are already answered.
| Query Smiles | IC50, nM |
| --- | --- |
| N#CC(=Cc1cccc(CCOC(=O)N[C@@H](Cc2ccccc2)B(O)O)c1)c1ccncn1 | 354 |
| CCN(C(=O)C(C#N)=Cc1cccc(CCOC(=O)N[C@@H](Cc2ccc(C)cc2)B(O)O)c1)C1CCOCC1 | 802 |

I = CN(C)C(=O)C(C#N)=Cc1cc(F)cc(OCCC(=O)N[C@@H](Cc2ccccc2)B(O)O)c1
II = C[C@@H]1COC[C@@H](C)N1C(=O)C(C#N)=Cc1cccc(CCOC(=O)N[C@@H](Cc2ccccc2)B(O)O)c1
III = N#CC(=Cc1cccc(CCOC(=O)N[C@@H](Cc2ccccc2)B(O)O)c1)c1ncccc1F
IV = CCN(CC)C(=O)C(C#N)=Cc1cc(C#N)cc(CCOC(=O)N[C@@H](Cc2coc3ccccc23)B(O)O)c1
V = CCNC(=O)C(C#N)=Cc1cccc(OCCC(=O)N[C@@H](Cc2ccccc2)B(O)O)c1
Q. Given 5 molecules, produce a descending ranking by IC50. The reply should contain the labels ordered as requested.
A. II, III, I, V, IV
(II: 1190 nM, III: 610 nM, I: 176 nM, V: 120 nM, IV: 43 nM)

----------
# Measurement Target: immunoproteasome LMP2 subunit (Homo sapiens, UniProt P28065)
# Assay Details: Caliper-based proteasome enzymatic activity assay, LMP2
# Run Parameters: human recombinant immunoproteasome 0.3 nM, FAM peptide substrate 1 μM, rt 2 h
Assay Readout: IC50 (nM)

Worked set:
| Query Smiles | Test Result |
| --- | --- |
| CN(C)C(=O)C(C#N)=Cc1cc(OCCC(=O)N[C@@H](Cc2ccccc2)B(O)O)ccc1F | 393 |
| CN(C)C(=O)C(C#N)=Cc1cccc(COC(=O)N[C@@H](Cc2ccccc2)B(O)O)c1 | 2920 |

A = N#CC(=Cc1cccc(OCCC(=O)N[C@@H](Cc2ccccc2)B(O)O)c1)c1ncccc1F
B = N#CC(=Cc1ccc2c(c1)CN(CC(=O)N[C@@H](Cc1ccccc1)B(O)O)CC2)c1ccccn1
C = N#CC(=Cc1cccc(OCCC(=O)N[C@@H](Cc2ccccc2)B(O)O)c1)C(=O)N1CCOCC1
D = COc1ccc(C=C(C#N)c2ccccn2)cc1OCCC(=O)N[C@@H](Cc1ccccc1)B(O)O
Q. Sort entries by IC50 from minimum to maximum value. Answer with the labels in sequence, matching the requested order.
A. D, B, A, C
(D: 17 nM, B: 74.4 nM, A: 120 nM, C: 820 nM)

The reported measurements were obtained from patent US12024531B2.
